Tested System: Hck (UniProt P08631)
Sequence (P08631 whole entry, looked up): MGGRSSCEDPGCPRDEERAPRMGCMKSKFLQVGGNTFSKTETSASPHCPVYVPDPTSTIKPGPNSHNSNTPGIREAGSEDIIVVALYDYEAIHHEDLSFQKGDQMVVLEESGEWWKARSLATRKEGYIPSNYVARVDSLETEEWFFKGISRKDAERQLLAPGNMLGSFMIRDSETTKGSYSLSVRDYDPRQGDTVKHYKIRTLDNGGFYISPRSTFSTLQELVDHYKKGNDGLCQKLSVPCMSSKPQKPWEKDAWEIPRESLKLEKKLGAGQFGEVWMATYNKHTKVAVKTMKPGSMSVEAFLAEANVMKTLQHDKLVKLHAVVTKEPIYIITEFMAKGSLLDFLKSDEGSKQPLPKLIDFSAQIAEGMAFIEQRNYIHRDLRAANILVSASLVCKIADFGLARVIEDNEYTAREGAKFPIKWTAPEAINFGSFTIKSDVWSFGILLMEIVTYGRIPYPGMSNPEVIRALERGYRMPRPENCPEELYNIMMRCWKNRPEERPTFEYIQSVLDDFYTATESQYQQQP
Assay Details: phosphorylation enrichment, bacterial display (enrichment ratio); higher = better substrate or ligand; peptides without Tyr show the background;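 also: 11-residue human phosphosite peptides and single-mutation variants displayed on the E. coli surface, counted by deep sequencing, each peptide's frequency after selection divided by its frequency in the unselected input library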;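 also: frequency after pTyr selection over input frequency; kinase dosed for 20-30% of maximal phosphorylation in three min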
Observation Type: phosphorylation enrichment

>  <Macromolecule Sequence>
KVFRVYQGQQP [MUTYH_Y494]

>  <Experimental Result>
0.388

$$$$
>  <Macromolecule Sequence>
KDHLDYKYQPR [SOX9_Y172_P170L]

>  <Experimental Result>
0.415

$$$$
>  <Macromolecule Sequence>
CTNIHYNYMCN [TP53_Y234_T231N]

>  <Experimental Result>
0.437

$$$$
>  <Macromolecule Sequence>
VIKDKYPKARY [APTX_Y209]

>  <Experimental Result>
0.373

$$$$
>  <Macromolecule Sequence>
PSPTKYSLSPS [RANBP2_Y785_R784K]

>  <Experimental Result>
0.354

$$$$
>  <Macromolecule Sequence>
NGTVTYAIIAG [CDH23_Y1672_V1675I]

>  <Experimental Result>
1.31

$$$$
>  <Macromolecule Sequence>
ALTRSYIREKV [CYP2C8_Y243]

>  <Experimental Result>
0.4

$$$$
>  <Macromolecule Sequence>
ELANLYHHVCM [BICD2_Y538]

>  <Experimental Result>
2.17

$$$$
>  <Macromolecule Sequence>
EKKKYYDAKIE [CASP5_Y104_T106A]

>  <Experimental Result>
0.449

$$$$
>  <Macromolecule Sequence>
VLTSKYRGGGG [HBA1_Y141]

>  <Experimental Result>
0.563

$$$$
>  <Macromolecule Sequence>
TVHCDYLNIPH [TAF1L_Y1385]

>  <Experimental Result>
0.55

$$$$
>  <Macromolecule Sequence>
FRVAGYKTQGG [TIA1_Y383_E384K_YF]

>  <Experimental Result>
0.401

$$$$
>  <Macromolecule Sequence>
TIQIMYGCDVG [HLA-A_Y123]

>  <Experimental Result>
0.581

$$$$
>  <Macromolecule Sequence>
LVMFIYVIFGM [SCN1A_Y1684_A1685V]

>  <Experimental Result>
0.571

$$$$
>  <Macromolecule Sequence>
DKEKWYPLGTS [PIK3C2G_Y1438_N1442T]

>  <Experimental Result>
0.44

$$$$
>  <Macromolecule Sequence>
CTTIHHNFMCN [TP53_Y234_Y234H_YF]

>  <Experimental Result>
0.436

$$$$
>  <Macromolecule Sequence>
PKEQKYSFLQN [GH1_Y68]

>  <Experimental Result>
0.577

$$$$
>  <Macromolecule Sequence>
RGKDSYETSKL [SPP1_Y225_Q229K]

>  <Experimental Result>
0.669

$$$$
>  <Macromolecule Sequence>
IHKEFYDGLFP [BCR_Y561]

>  <Experimental Result>
1.17

$$$$
>  <Macromolecule Sequence>
YGGLRYGYGGL [KRTAP20-2_Y13_V17G]

>  <Experimental Result>
1.42

$$$$
>  <Macromolecule Sequence>
ARLEYCENEKK [IRS1_Y47_Y47C]

>  <Experimental Result>
0.421

$$$$
>  <Macromolecule Sequence>
TVEDHYFEGGI [TKT_Y563_YF]

>  <Experimental Result>
0.497

$$$$
>  <Macromolecule Sequence>
LYIDSYEKDVA [PGM1_Y521]

>  <Experimental Result>
0.659

$$$$
>  <Macromolecule Sequence>
GEDPIYVTLEG [RTKtide_2018]

>  <Experimental Result>
3.44

$$$$
>  <Macromolecule Sequence>
VPLLEYFWDIF [CDAN1_Y712_R714W_YF]

>  <Experimental Result>
0.432

$$$$
>  <Macromolecule Sequence>
LPEENYQVLRF [ARHGAP1_Y365]

>  <Experimental Result>
2.82

$$$$
>  <Macromolecule Sequence>
IETGKYEILTE

>  <Experimental Result>
0.478

$$$$
>  <Macromolecule Sequence>
LHSEAYLKYIE [PBRM1_Y1610]

>  <Experimental Result>
0.684

$$$$
>  <Macromolecule Sequence>
HTLMKYTDGDQ [PUS7L_Y94_I92M]

>  <Experimental Result>
0.682

$$$$
>  <Macromolecule Sequence>
LTTEAYEWEPR [ELMOD3_Y61]

>  <Experimental Result>
0.943

$$$$

Ref: the supplement of paper PMC10065799
